test: AUC (0 to infinity) in CD-1 mouse at 50 mg/kg, po administered through gavage by LC-MS/MS analysis; assay type: ADME, organism-based; design: time infinity, dose 50 mg/kg, route oral; conditions: plasma
Observed property: AUC(0-inf)

Inquiry: Look at this compound and give its reported AUC(0-inf). CC(C)NC(=O)[C@H]1CC[C@@H](n2/c(=N/C(=O)c3ccc(F)cc3)[nH]c3ccc(CN4CCC(C(C)(C)O)CC4)cc32)CC1
Reply text: 23.7 µM·h

###

test: Tmax in CD-1 mouse at 20 mg/kg, po administered through gavage by LC-MS/MS analysis; assay type: ADME, organism-based; parameters: dose 20 mg/kg, route oral; conditions: in vivo
Observed property: Tmax (min)
Give just the numeric value; min need not be written.

Inquiry: Look at this molecule and give its reported Tmax. CC(C)NC(=O)[C@H]1CC[C@@H](n2/c(=N/C(=O)c3ccc(F)cc3)[nH]c3ccc(CN4CCC(C(C)(C)O)CC4)cc32)CC1
Reply text: 15

###

assay: Apparent oral clearance in CD-1 mouse at 50 mg/kg, po administered through gavage by LC-MS/MS analysis; type: ADME, organism-based; parameters: dose 50 mg/kg, route oral; conditions: in vivo
Observed property: CL/F (mL/min/kg)
Give just the numeric value; mL/min/kg need not be written.

Inquiry: Look at this molecule and give its reported CL/F. CC(C)NC(=O)[C@H]1CC[C@@H](n2/c(=N/C(=O)c3ccc(F)cc3)[nH]c3ccc(CN4CCC(C(C)(C)O)CC4)cc32)CC1
Reply text: 60.8

###

assay: Intrinsic clearance in human liver microsomes at 0.1 uM by LC-MS/MS analysis in presence of NADPH; format: ADME; settings: read-out: CLH
Observed property: microsomal CLint at 0.1 µM (µL/min/mg)
Give just the numeric value; µL/min/mg need not be written.

Inquiry: Look at this compound and give its reported microsomal CLint at 0.1 µM. CC(C)NC(=O)[C@H]1CC[C@@H](n2/c(=N/C(=O)c3ccc(F)cc3)[nH]c3ccc(CN4CCC(C(C)(C)O)CC4)cc32)CC1
Reply text: 93
